# STUDY SYSTEM: Vascular endothelial growth factor receptor 2 (Homo sapiens, UniProt P35968)
# Sequence (P35968 whole entry): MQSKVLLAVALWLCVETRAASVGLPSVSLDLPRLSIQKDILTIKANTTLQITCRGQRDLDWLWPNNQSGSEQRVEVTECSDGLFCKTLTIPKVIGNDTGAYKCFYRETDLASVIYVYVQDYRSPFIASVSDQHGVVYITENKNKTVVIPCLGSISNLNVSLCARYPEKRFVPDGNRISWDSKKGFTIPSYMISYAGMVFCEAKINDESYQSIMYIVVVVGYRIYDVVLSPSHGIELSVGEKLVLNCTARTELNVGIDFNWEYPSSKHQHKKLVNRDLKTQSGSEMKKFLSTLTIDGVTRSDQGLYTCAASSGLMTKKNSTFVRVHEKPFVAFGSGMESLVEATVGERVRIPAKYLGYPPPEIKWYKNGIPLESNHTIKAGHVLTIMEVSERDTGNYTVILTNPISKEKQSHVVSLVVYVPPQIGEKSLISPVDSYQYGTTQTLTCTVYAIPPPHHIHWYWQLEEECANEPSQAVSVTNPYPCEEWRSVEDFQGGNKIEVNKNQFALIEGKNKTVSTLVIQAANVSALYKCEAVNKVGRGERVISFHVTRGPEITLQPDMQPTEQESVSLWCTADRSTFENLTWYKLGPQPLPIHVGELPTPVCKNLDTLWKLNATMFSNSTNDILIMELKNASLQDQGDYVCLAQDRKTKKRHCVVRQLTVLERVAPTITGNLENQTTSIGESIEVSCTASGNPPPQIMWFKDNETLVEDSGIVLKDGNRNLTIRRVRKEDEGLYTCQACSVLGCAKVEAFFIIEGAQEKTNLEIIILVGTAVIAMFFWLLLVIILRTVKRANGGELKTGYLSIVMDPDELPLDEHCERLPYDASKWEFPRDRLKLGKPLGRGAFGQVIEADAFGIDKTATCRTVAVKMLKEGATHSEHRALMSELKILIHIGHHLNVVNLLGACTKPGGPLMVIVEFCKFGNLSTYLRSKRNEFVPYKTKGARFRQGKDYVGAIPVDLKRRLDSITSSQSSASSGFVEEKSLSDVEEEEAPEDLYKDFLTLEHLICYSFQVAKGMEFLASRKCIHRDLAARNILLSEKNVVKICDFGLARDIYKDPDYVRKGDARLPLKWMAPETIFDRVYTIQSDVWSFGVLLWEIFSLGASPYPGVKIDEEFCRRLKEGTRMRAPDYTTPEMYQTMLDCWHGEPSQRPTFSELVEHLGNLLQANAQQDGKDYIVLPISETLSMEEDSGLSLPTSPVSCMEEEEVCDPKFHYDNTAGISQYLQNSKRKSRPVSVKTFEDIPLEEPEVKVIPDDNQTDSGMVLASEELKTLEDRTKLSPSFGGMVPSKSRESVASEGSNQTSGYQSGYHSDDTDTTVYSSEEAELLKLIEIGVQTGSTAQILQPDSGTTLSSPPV
# PROTOCOL SUMMARY: Inhibition Assay
# CONDITION: pH 7; 22 °C
Readings of IC50 for the listed compounds
PROPERTY MEASURED: IC50

>  <COMPOUND>
C=CCC1(O)C(C2C(=O)Nc3ccc(S(=O)(=O)N(C)CCN(C)C)cc32)=Nc2ccccc21 (stereo not drawn) [Indirubin derivative, 30b]

>  <TEST RESULT>
> 10 µM

$$$$
>  <COMPOUND>
O=C1Nc2ccc(Br)cc2C1=C1Nc2ccccc2C1=O

>  <TEST RESULT>
> 10 µM

$$$$
>  <COMPOUND>
CN(C)CCN(C)S(=O)(=O)c1ccc2c(c1)C(C1=Nc3ccccc3C1(C)O)C(=O)N2 (stereo not drawn) [Indirubin derivative, 28b]

>  <TEST RESULT>
> 10 µM

$$$$
